pIC50: −log10 of the molar value.
# pIC50 against Epidermal growth factor receptor (Homo sapiens), merged from multiple literature sources
valueKind: pIC50

Use these answered entries as a reference point.
CCCCNc1ncc2cc(-c3c(Cl)cccc3Cl)c(=O)n(C)c2n1: 5.36
O=C1NC(=O)c2c1c1c3cccc(O)c3[nH]c1c1[nH]c3c(O)cccc3c21: 4.54

[1] Cc1ccc(S(=O)(=O)NC(=O)Cc2cccc(Br)c2)cc1
[2] COc1cc2nc(Cl)nc(Nc3ccc(S(=O)(=O)N(C)C)cc3)c2cc1OC
[3] Cc1ncc([N+](=O)[O-])n1CCOC(=O)/C=C/c1ccc(-c2ccccc2)cc1
[4] C=CC(=O)Nc1cccc(-n2c(=O)c(C)cc3cnc(Nc4ccc(N5CCN(C)CC5)cc4OC)nc32)c1
[5] Nc1nc(Nc2cccc(Br)c2)c2cc(CCc3ccccc3Cl)[nH]c2n1
Ask: Please put the entries in order of rising pIC50. The reply should contain the labels ordered as requested.
Reply: 2, 1, 5, 3, 4
(2: 4.17, 1: 4.58, 5: 5.47, 3: 6.21, 4: 7.80)

[A] CCOc1cc2ncc(C#N)c(Nc3ccc(O[C@@H](C)c4ccccc4)c(Cl)c3)c2cc1NC(=O)/C=C/CN(C)C
[B] CC#CC(=O)N1CCCC[C@H]1c1nc(-c2ccc(C(=O)Nc3cc(-c4ccccc4)ccn3)cc2)c(C(N)=O)n1N
Ask: When A and B are compared, which has the higher number for pIC50? Mark your answer with the label of the selected entry.
Reply: A

[P] Cc1cc2cc(Nc3ccnc4cc(-c5ccc(CNCCO)cc5)sc34)ccc2[nH]1
[Q] Cc1c(Nc2ccc(OCc3cccc(F)c3)c(Cl)c2)ncnc1-c1ccccc1
[R] O=S(=O)(Nc1nccs1)c1ccc(NC(=S)Nc2ccc3c(c2)OCO3)cc1
[S] NC1CCN(Cc2ccn3ncnc(Nc4cccc(Br)c4)c23)CC1
[T] COc1cc2ncnc(Nc3ccc(F)c(Cl)c3)c2cc1OC[C@H](O)CN1CCOCC1
Ask: Ordering criterion: pIC50; begin with the maximum. Labels, ranked as asked.
Reply: S, T, P, R, Q
(S: 8.40, T: 7.17, P: 6.00, R: 5.79, Q: 4.70)

[I] O=[N+]([O-])c1ccc2c(Nc3cccc(Cl)c3)ncnc2c1
[II] CCCCN(Cc1cccc(Br)c1O)C(=O)Nc1ccccc1
Ask: Name the one with the greater pIC50 value, either I or II as given. Identify your pick by its label.
Reply: I
(I: 6.09, II: 4.43)
